test system: K24384-001-R-PDC complex spheroids, viability; test: Anticancer human tumor K24384-001-R-PDC patient-derived pancreatic adenocarcinoma cell line growth inhibition [GQUAD]; conditions: second compound 1 µM; first compound 10 µM; stronger effect = lower value;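 also: spheroids exposed to compounds for seven days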
attribute.measured: viability, T/C (%)
Quick reminder: number only, in %, skip the unit.

Identify the measured viability, T/C of COc1ncnc(C2CC2)c1-c1ncc2cnn(Cc3ccc(-c4nc(C(F)(F)F)cn4C(C)C)cc3)c2n1 + Cc1[nH]c2ccc(F)cc2c1-c1nc2c3cccnc3c3ncccc3c2[nH]1 for K24384-001-R-PDC complex spheroids, viability. 95.7

Thanks! And CC(C)(O)C1CCC(Nc2ccc3ncc(-c4cccc(C(F)(F)F)c4)n3n2)CC1 (stereo not given) + Cc1[nH]c2ccc(F)cc2c1-c1nc2c3cccnc3c3ncccc3c2[nH]1 ? 30.9

Check Nc1ccn(C2OC(CO)C(O)C2(F)F)c(=O)n1 (stereo not given) + CN(C)c1ccc(Nc2c3ccc(NC(=O)CCN4CCCC4)cc3nc3cc(NC(=O)CCN4CCCC4)ccc23)cc1 too. 16.8

Ok, now CC(=O)O[C@H]1C(=O)[C@@]2(C)[C@H]([C@H](OC(=O)c3ccccc3)[C@]3(O)C[C@H](OC(=O)[C@H](O)[C@@H](NC(=O)c4ccccc4)c4ccccc4)C(C)=C1C3(C)C)[C@]1(OC(C)=O)CO[C@@H]1C[C@@H]2O + Cc1cnc(CNC(=O)c2c(=O)c3ccc(N4CCCN(C)CC4)nc3n3c2sc2ccccc23)cn1 34.4

// same read-out, input: Cc1cccc(N(C)C(=O)C2C(O)CCN2c2nc(C)cc(C(F)(F)F)c2C#N)c1 (stereo not given) + Cc1cnc(CNC(=O)c2c(=O)c3ccc(N4CCCN(C)CC4)nc3n3c2sc2ccccc23)cn1 41.7
